Values were extracted from the supplement of paper PMC9732359.

- test-details: protein stability index of a GFP-peptide fusion (yeast GPS) (PSI 1-4); higher = more stable; sorted into four equal gates, so the index is relative within each strain
- condition-context: ubr1∆
The reader will find reported protein stability index values listed item by item below.
Reply: number alone, nothing else.

Study these solved cases before continuing.
MSIDEEDKDSESFSEVC [YCG1] :: 2.43
SHNVDELLEHIETIGHL [RPN5] :: 1.53
ITRFGLSKMRDSVLQLA [RPO31] :: 3.44
TSANGIVQFTYGGDGLD [RPO31] :: 3.04
TIVGVKFNNGVVIAADT [PUP1] :: 2.55
NTFNYDVKISNDFFDNG [RPN4] :: 2.48
ELKDICSFAVTKSSLND [YML103C/NUP188] :: 3.02
LQETLNKSTSSEAEYSK [YIL149C/MLP2] :: 3.28
IYNELSYELIKEECQIE [CSN9] :: 3
EANWPLPVNIRRIIQNA [RPO21] :: 1.04

Challenge: I have this sequence here, EHASLLVRDSKPSKPFN [MED8] , and I need its recorded protein stability index.
Response given: 2.55

Challenge: What does the record list as protein stability index for IKELLNITKNLKTFNGS [POP4] ?
Response given: 2.21

Challenge: Which measured protein stability index value corresponds to AQYFYSGAYSYPDFRHY [DIS3] ?
Response given: 1.56

Challenge: Any idea what protein stability index was measured for RRIKEAEENLKKRIRLP [YIL149C/MLP2] ?
Response given: 2.02

Challenge: Suppose we examine the sequence ANGTVVSFIKNGEEIVG [MTR3] ; what protein stability index value has been reported?
Response given: 1.91

Challenge: Recorded protein stability index for NSQVFGVARIYASFNDT [RPS14B] , please?
Response given: 2.67

Challenge: I have this sequence here, LTFHTLKKANIIYHTTF [YLR018C/POM34] , and I need its recorded protein stability index.
Response given: 1.98

Challenge: So what's the measured protein stability index for this one? APIGKHYVVLDTNVVLQ [DIS3]
Response given: 2.31

Challenge: Fill in: protein stability index of ETYGSMEMSEKIQFILE [RPN5] is ___
Response given: 2.77
